As shown below, each of these molecules has a reported pIC50 value.
Biological target: UniProtKB P37288
Sequence (P37288 whole entry): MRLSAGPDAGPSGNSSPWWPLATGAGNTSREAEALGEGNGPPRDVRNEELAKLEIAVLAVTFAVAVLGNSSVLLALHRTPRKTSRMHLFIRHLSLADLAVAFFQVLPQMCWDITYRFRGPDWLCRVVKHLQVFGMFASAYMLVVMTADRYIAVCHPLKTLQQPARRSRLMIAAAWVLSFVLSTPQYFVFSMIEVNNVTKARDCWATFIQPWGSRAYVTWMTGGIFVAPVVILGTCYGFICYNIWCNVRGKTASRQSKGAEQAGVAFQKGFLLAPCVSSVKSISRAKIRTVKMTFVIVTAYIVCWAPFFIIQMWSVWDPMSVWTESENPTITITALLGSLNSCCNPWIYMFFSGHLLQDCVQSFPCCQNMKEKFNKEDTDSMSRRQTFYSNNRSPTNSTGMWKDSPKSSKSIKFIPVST
Assay: Inhibition activity on human V1aR (Fluo-4 calcium assay, HEK293/human V1aR stably transfected cells, vasopressin 3 nM)
Conditions: calcium signal
// field semantics: pIC50 = negative decimal log of concentration (mol/L)

Example cases with answers are listed next.
- sample_smiles: "COCc1nnc(N2C[C@@H]3C[C@]3(c3ccc(F)cc3Cl)C2)n1-c1ccc(OC)nc1"
  pIC50: 5.54
- sample_smiles: "COc1ccc(-n2c(C)nnc2N2C[C@@H]3C[C@]3(c3ccc(F)cc3Cl)C2)cn1"
  pIC50: 5.70
- sample_smiles: "COc1ccc(-n2c(COCCF)nnc2N2C[C@@H]3C[C@]3(c3ccc(F)cc3Cl)C2)cn1"
  pIC50: 6.00

Read the next record carefully.
Requested read-out pIC50, target or system UniProtKB P37288, entry COCc1nnc(N2C[C@@H]3C[C@]3(c3cccc(F)c3Cl)C2)n1-c1ccc(OC)nc1
5.42

Ref: patent US20210040073A1
